Numbers sourced from the supplement of paper PMC11061612.

Test system: Mewo (Melanoma);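 further: after 72 h of two-drug dosing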
measurement_notes: Bliss excess, mean over the matrix (fraction); higher = more synergy
Form field: Bliss excess (one value per entry).
Write no unit; give the number alone.

Solved cases (8 shown):
Cc1c2c(nn1C)CSCc1cc(n(C)n1)CSc1cc(c3ccccc3c1)OCCCc1c(C(=O)O)n(C)c3c-2c(Cl)ccc13 [AZD5991] + CN(C)CCCOc1ccc(-c2ccc3ncc4c(c3c2)n(C2CCOCC2)c(=O)n4C)cn1 [AZD0156] (first compound max 1 µM, 7x7, partner max 1 µM) ... -0.019
CN(CCO)CC[C@H](CSc1ccccc1)Nc1ccc(S(=O)(=O)NC(=O)c2ccc(N3CCC([C@@H](O)c4ccccc4-c4ccc(Cl)cc4)CC3)cc2)cc1S(=O)(=O)C(F)(F)F [AZD4320] + CCN(CCO)CCCOc1ccc2c(Nc3cc(CC(=O)Nc4cccc(F)c4)[nH]n3)ncnc2c1 [AZD2811] (first compound max 1 µM, 7x7, partner max 1 µM) ... 0.0053
CC1(C)CCC(CN2CCN(c3ccc(C(=O)NS(=O)(=O)c4ccc(NCC5CCOCC5)c([N+](=O)[O-])c4)c(Oc4cnc5[nH]ccc5c4)c3)CC2)=C(c2ccc(Cl)cc2)C1 [Venetoclax] + C[C@@H]1COCCN1C2=NC(=NC(=C2)C3(CC3)[S@](=N)(=O)C)C4=C5C=CNC5=NC=C4 [AZD6738] (first compound max 1 µM, 7x7, partner max 10 µM) ... -0.0285
Cc1cc2ncnn2cc1Nc1ncc2c(n1)n(C1CCOCC1)c(=O)n2C [AZD7648] + C=CCn1c(=O)c2cnc(Nc3ccc(N4CCN(C)CC4)cc3)nc2n1-c1cccc(C(C)(C)O)n1 [AZD1775] (first compound max 10 µM, partner max 1 µM) ... 0.0455
Cc1c2c(nn1C)CSCc1cc(n(C)n1)CSc1cc(c3ccccc3c1)OCCCc1c(C(=O)O)n(C)c3c-2c(Cl)ccc13 [AZD5991] + C[C@@H]1COCCN1C2=NC(=NC(=C2)C3(CC3)[S@](=N)(=O)C)C4=C5C=CNC5=NC=C4 [AZD6738] (first compound max 1 µM, 7x7, partner max 10 µM) ... -0.0329
CN(CCO)CC[C@H](CSc1ccccc1)Nc1ccc(S(=O)(=O)NC(=O)c2ccc(N3CCC([C@@H](O)c4ccccc4-c4ccc(Cl)cc4)CC3)cc2)cc1S(=O)(=O)C(F)(F)F [AZD4320] + Cn1cnc2c(F)c(Nc3ccc(Br)cc3Cl)c(C(=O)NOCCO)cc21 [Selumetinib] (first compound max 1 µM, 7x7, partner max 3 µM) ... 0.0374
C[C@@H](Nc1cc(F)cc(F)c1)c1cc(C(=O)N(C)C)cc2c(=O)cc(N3CCOCC3)oc12 [AZD8186] + CC(=O)c1c(C)c2cnc(Nc3ccc(N4CCNCC4)cn3)nc2n(C2CCCC2)c1=O [Palbociclib] (first compound max 10 µM, 7x7, partner max 10 µM) ... -0.0155
CS(=O)(=O)CCNCc1ccc(-c2ccc3ncnc(Nc4ccc(OCc5cccc(F)c5)c(Cl)c4)c3c2)o1 [Lapatinib] + Cn1cnc2c(F)c(Nc3ccc(Br)cc3Cl)c(C(=O)NOCCO)cc21 [Selumetinib] (first compound max 10 µM, 7x7, partner max 10 µM) ... -0.0029

stdin: Give Bliss excess (Mewo (Melanoma)) of the following compound: Cc1c2c(nn1C)CSCc1cc(n(C)n1)CSc1cc(c3ccccc3c1)OCCCc1c(C(=O)O)n(C)c3c-2c(Cl)ccc13 [AZD5991] + C=CCn1c(=O)c2cnc(Nc3ccc(N4CCN(C)CC4)cc3)nc2n1-c1cccc(C(C)(C)O)n1 [AZD1775] (first compound max 1 µM, partner max 1 µM)
stdout: -0.0347

stdin: Next entry: CN(C)CCCOc1ccc(-c2ccc3ncc4c(c3c2)n(C2CCOCC2)c(=O)n4C)cn1 [AZD0156] + C[C@@H]1COCCN1C2=NC(=NC(=C2)C3(CC3)[S@](=N)(=O)C)C4=C5C=CNC5=NC=C4 [AZD6738] (first compound max 1 µM, 7x7, partner max 10 µM)
stdout: -0.0365

stdin: Next entry: CS(=O)(=O)CCNCc1ccc(-c2ccc3ncnc(Nc4ccc(OCc5cccc(F)c5)c(Cl)c4)c3c2)o1 [Lapatinib] + NC1(c2ccc(-c3nc4ccn5c(=O)[nH]nc5c4cc3-c3ccccc3)cc2)CCC1 [MK-2206] (first compound max 10 µM, 7x7, partner max 10 µM)
stdout: 0.0072

stdin: Next entry: COc1nnc2ccc(N3CCC(c4ccc(OCCN5CCN(C)C(=O)[C@H]5C)cc4)CC3)nn12 [AZD5153] + C=CCn1c(=O)c2cnc(Nc3ccc(N4CCN(C)CC4)cc3)nc2n1-c1cccc(C(C)(C)O)n1 [AZD1775] (first compound max 1 µM, partner max 1 µM)
stdout: -0.0245

stdin: Next entry: N#Cc1cnc(Nc2cc(NC[C@H]3CNCCO3)c(C(F)(F)F)cn2)cn1 [SRA737] + O=c1[nH]cc(F)c(=O)[nH]1 [5-Fluorouracil] (first compound max 10 µM, 7x7, partner max 20 µM)
stdout: -0.0136
